# System: human monoclonal antibody CR57
# Format: binding
Record form. Attribute: Binding of CR57 (10 μg/ml) to looped/cyclic peptide (PEPSCAN-ELISA signal). Fill in for each entry.
Numbers only.

// known answers, use as guide
SLVIISPSVADLDPY    98
LHNPYPDYRWLRTVK    99
PNNLVVEDEGCTNLS    100

Give one value of Binding of CR57 (10 μg/ml) to looped/cyclic peptide (PEPSCAN-ELISA signal) per listed sequence.
1. LGMSCDIFTNSRGKR
2. PDACRAAYNWKMAGD

RESULT:
1. 102
2. 97

* * *

# System: human monoclonal antibody CR57
# Format: binding
Classification field. Basis: Binding of CR57 to linear peptide (PEPSCAN-ELISA signal). Definitions: lower range (below 70), middle range (70 to below 90), upper range (90 or more)

Check out these entries, answers already filled in.
GFVDERGLYKSLKGA    middle range
ESIMTTKSVSFRRLS    lower range
ASKGSETCGFVDERG    upper range
CPNNLVVEDEGCTNL    middle range
ILDKLGPWSPIDIHH    lower range

Shifting focus to the sequence that follows.
QUERY: Please classify: PDQLVNLHDFRSDEI
RESULT: lower range

* * *

For each entry below, report its Binding of CRJB (10 μg/ml) to looped/cyclic peptide (PEPSCAN-ELISA) value.
# Tested on: human monoclonal antibody CRJB
# Type: binding
One number for each entry.

Below, 2 sequences whose answers are already recorded.
GFVDERGLYKSLKGA    86
KWCPPDQLVNLHDFR    100

Switching to the query record.
QUERY: Using known records, supply Binding of CRJB (10 μg/ml) to looped/cyclic peptide (PEPSCAN-ELISA) for RCHPHVNGVFFNGII
RESULT: 100

* * *

# Tested on: human monoclonal antibody CRJB
# Format: binding
QUANTITY_KIND: Binding of CRJB (10 μg/ml) to looped/cyclic peptide (PEPSCAN-ELISA signal)
Give bare numbers.

SCDIFTNSRGKRASK    79
KRKHFRPTPDACRAA    84
FVGYVTTTFKRKHFR    82

# batch: return Binding of CRJB (10 μg/ml) to looped/cyclic peptide (PEPSCAN-ELISA signal) for each of the 4 sequences below
1. SGKCSGVAVSSTYCS
2. DPRYEESLHNPYPDY
3. WKMAGDPRYEESLHN
4. YNWKMAGDPRYEESL

RESULT:
[57, 65, 77, 89]

* * *

# Tested on: human monoclonal antibody CRJA
# Type: binding
QUANTITY_KIND: Binding of CRJA (10 μg/ml) to looped/cyclic peptide (PEPSCAN-ELISA signal)
Numbers only.

SSTYCSTNHDYTIWM    90
TVKTTKESLVIISPS    92
CDIFTNSRGKRASKG    101

Note: attention shifts to another entry.
QUERY: Answer with the recorded Binding of CRJA (10 μg/ml) to looped/cyclic peptide (PEPSCAN-ELISA signal) for the sequence listed here: YVTTTFKRKHFRPTP
RESULT: 137

* * *

# System: human monoclonal antibody CRJB
# Format: binding
Mark Condition met only when Binding of CRJB (10 μg/ml) to looped/cyclic peptide (PEPSCAN-ELISA signal) stays strictly below 70. Values equal to the cut-off are Condition not met.

These recorded examples may help you get a feel for the data.
MAGDPRYEESLHNPY    Condition met
EESLHNPYPDYRWLR    Condition not met
LDKLGPWSPIDIHHL    Condition met
YEESLHNPYPDYRWL    Condition met

Could you now look at the following sequence, please?
QUERY: Please let me know if YILAIKMNGFTCTGV shows Binding of CRJB (10 μg/ml) to looped/cyclic peptide (PEPSCAN-ELISA signal) below 70.
RESULT: Condition met

Origin of values: patent US20060263802A1
